# TARGET_ENTITY: T1, mouse big-ET-1 (mouse)
# T1 peptide: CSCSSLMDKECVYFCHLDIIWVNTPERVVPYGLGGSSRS
# ASSAY_METHOD_TEXT: cell-based or functional assay
Examples of binders with documented Blocking IC50(M), 20 nM mBig-ET-1 + 5 nM mECE1; 293/ETaR/NFAT-Luc luciferase follow.
Report as a plain number; the unit M is understood.

BINDER: H4H6323P (antibody, V domains shown, Human IgG4 Fc (prefix H4H)) VH: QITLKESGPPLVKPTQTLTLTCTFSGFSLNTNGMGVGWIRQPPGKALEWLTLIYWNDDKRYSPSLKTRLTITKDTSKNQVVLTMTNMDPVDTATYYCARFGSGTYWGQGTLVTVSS VL: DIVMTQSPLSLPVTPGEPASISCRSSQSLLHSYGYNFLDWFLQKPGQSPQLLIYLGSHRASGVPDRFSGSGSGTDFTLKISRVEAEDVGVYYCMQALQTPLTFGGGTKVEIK
VALUE: 4e-09

Switching to the query record.
The recorded Blocking IC50(M), 20 nM mBig-ET-1 + 5 nM mECE1; 293/ETaR/NFAT-Luc luciferase for entry H4H6330P (antibody, V domains shown, Human IgG4 Fc (prefix H4H)) VH: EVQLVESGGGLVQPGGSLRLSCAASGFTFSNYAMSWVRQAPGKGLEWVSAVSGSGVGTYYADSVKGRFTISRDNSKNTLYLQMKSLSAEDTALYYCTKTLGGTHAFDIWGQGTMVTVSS VL: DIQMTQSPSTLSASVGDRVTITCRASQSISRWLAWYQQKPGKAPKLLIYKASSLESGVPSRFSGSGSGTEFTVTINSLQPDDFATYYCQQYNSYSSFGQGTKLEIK equals 1.6e-09
